- Experimental System: UniProt P31153
- Protocol Summary: Malachite Green Assay (MAT2A enzyme inhibition)
- Assay type: biochemical
- Experimental Setup: hMAT2A 50 nM, substrates 500 uM each, 1 hour
pIC50: −log10 of the molar value.
pIC50 values for the molecules below.

Worked examples follow.
O=c1nc(-n2cccn2)c2ccc(Cl)cc2n1-c1ccccc1 [Example 29]; 5.00 to 6.00
O=c1nc(N[C@H]2CCOC2)c2ccc(Cl)cc2n1-c1ccccc1 [Example 22]; 6.30 to 6.70
O=c1nc(N2CC(O)C2)c2ccc(Cl)cc2n1-c1ccccc1 [Example 74]; > 6.70

Give its pIC50 value. Item: CN(C)c1nc(=O)n(-c2ccccc2)c2cc(Br)ccc12 [Example 34] > 6.70

====

- Experimental System: hMAT2A (Homo sapiens (Human), UniProt P31153)
- Sequence (P31153 whole entry): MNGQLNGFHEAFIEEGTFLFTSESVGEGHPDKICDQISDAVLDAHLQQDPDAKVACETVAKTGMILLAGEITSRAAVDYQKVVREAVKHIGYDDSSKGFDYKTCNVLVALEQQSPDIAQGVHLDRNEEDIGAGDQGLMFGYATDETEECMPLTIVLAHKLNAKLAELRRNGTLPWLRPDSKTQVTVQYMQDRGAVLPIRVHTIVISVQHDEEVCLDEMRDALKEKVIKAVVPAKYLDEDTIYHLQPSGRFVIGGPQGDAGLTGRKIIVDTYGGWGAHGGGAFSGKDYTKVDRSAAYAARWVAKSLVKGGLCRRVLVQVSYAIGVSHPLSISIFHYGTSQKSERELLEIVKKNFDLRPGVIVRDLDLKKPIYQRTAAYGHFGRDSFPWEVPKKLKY
- Protocol Summary: Phosphate Sensor Fluorescence Assay (MAT2A enzyme inhibition)
- Type: biochemical
- Experimental Setup: L-methionine 500 uM, ATP 500 uM, class symbols
pIC50: −log10 of the molar value.
Endpoint Label: pIC50

COc1nc(=O)n(-c2ccccc2Cl)c2cc(C3CC3)ccc12; > 6.70

Give its pIC50 value. Item: `Nc1nc(=O)n(-c2ccccc2)c2cc(C(F)(F)F)ccc12` > 6.70

Give its pIC50 value. Item: `C#Cc1ccc2c(NC)nc(=O)n(-c3ccccc3)c2c1` > 6.70

Give its pIC50 value. Item: `CNc1nc(=O)n(-c2ccccc2)c2cc(Cl)c(C#N)cc12` 5.00 to 6.00

Give its pIC50 value. Item: `O=c1nc(NCC2CC2)c2cc(Cl)c(C3CC3)cc2n1-c1ccccc1Cl` > 6.70

Give its pIC50 value. Item: `COc1nc(=O)n(-c2ccccc2)c2nc(C)ccc12` 6.30 to 6.70

Give its pIC50 value. Item: `Cc1nc(=O)n(-c2ccccc2)c2cc(Cl)ccc12` 6.00 to 6.30

Give its pIC50 value. Item: `O=c1nc(N2CC[C@@H](O)C2)c2ccc(C(F)(F)F)cc2n1-c1ccccc1Cl` > 6.70

Give its pIC50 value. Item: `[2H]C([2H])([2H])Nc1nc(=O)n(-c2ccccc2)c2nc(C(F)(F)F)ccc12` > 6.70

Give its pIC50 value. Item: `CNc1nc(=O)n(-c2ccccc2Br)c2cc(Cl)ccc12` > 6.70

Give its pIC50 value. Item: `CC(F)(F)c1ccc2c(NCC3CC3)nc(=O)n(-c3ccccc3Cl)c2c1` > 6.70

Give its pIC50 value. Item: `[2H]C([2H])([2H])Nc1nc(=O)n(-c2ccccc2)c2cc(C(F)(F)F)ccc12` > 6.70

Give its pIC50 value. Item: `CCOC(=O)c1ccc2c(=O)[nH]c(=O)n(-c3ccccc3)c2c1` 5.00 to 6.00

Give its pIC50 value. Item: `C[C@]1(O)C[C@@H](Nc2nc(=O)n(-c3ccccc3Cl)c3nc(C(F)(F)F)ccc23)C1` > 6.70

Give its pIC50 value. Item: `O=c1nc(N2CC(F)C2)c2ccc(C(F)(F)F)nc2n1-c1ccccc1Cl` > 6.70

Give its pIC50 value. Item: `CNc1nc(=O)n(-c2ccccc2)c2cc(C(F)(F)F)c(Br)cc12` > 6.70

Give its pIC50 value. Item: `CNc1nc(=O)n(-c2ncccc2Cl)c2nc(C(F)(F)F)ccc12` > 6.70

Give its pIC50 value. Item: `[2H]C([2H])([2H])Nc1nc(=O)n(-c2ccccc2Br)c2cc(Cl)ccc12` > 6.70

Give its pIC50 value. Item: `CNc1nc(=O)n(-c2cccc(C(F)F)c2)c2cc(Cl)ccc12` > 6.70

Give its pIC50 value. Item: `O=c1[nH]c(=O)n(-c2cnccc2Cl)c2nc(C(F)(F)F)ccc12` > 6.70

Give its pIC50 value. Item: `O=c1nc(NC2(CO)CC2)c2ccc(C(F)(F)F)nc2n1-c1ccccc1Cl` > 6.70

====

- Experimental System: hMAT2A (Homo sapiens (Human))
- Protocol Summary: Phosphate Sensor Fluorescence Assay (MAT2A enzyme inhibition)
- Assay type: biochemical
- Experimental Setup: L-methionine 500 uM, ATP 500 uM, class symbols
pIC50: −log10 of the molar value.
pIC50 values for the compounds below.

Worked examples follow.
CNc1nc(=O)n(-c2ccc3nccn3c2)c2cc(Cl)ccc12; 5.00 to 6.00
COCCNc1nc(=O)n(-c2ccccc2Cl)c2nc(C(F)(F)F)ccc12; > 6.70
CNc1nc(=O)n(-c2ccc3[nH]cnc3c2)c2cc(Cl)ccc12; > 6.70
CNc1nc(=O)n(-c2cccc(C#N)c2)c2cc(Cl)ccc12; 6.30 to 6.70
C[C@@]1(O)CCN(c2nc(=O)n(-c3ccccc3)c3cc(Cl)ccc23)C1; 6.30 to 6.70

Give its pIC50 value. Item: `O=c1nc(NCC(F)(F)F)c2ccc(C(F)(F)F)cc2n1-c1ccccc1Cl` > 6.70

Give its pIC50 value. Item: N#Cc1cc2c(NCC3CCO3)nc(=O)n(-c3ccccc3Cl)c2cc1C1CC1 (stereo not drawn) 6.00 to 6.30

Give its pIC50 value. Item: `N#Cc1cc2c(NCC3CC3)nc(=O)n(-c3ccccc3Cl)c2cc1C1CC1` > 6.70

Give its pIC50 value. Item: `O=c1nc(N2CC(O)C2)c2ccc(C(F)(F)F)nc2n1-c1ccccc1Cl` > 6.70

====

- Experimental System: hMAT2A (Homo sapiens (Human), UniProt P31153)
- Protocol Summary: Phosphate Sensor Fluorescence Assay (MAT2A enzyme inhibition)
- Assay type: biochemical
- Experimental Setup: L-methionine 500 uM, ATP 500 uM, class symbols
pIC50: −log10 of the molar value.
pIC50 values for the compounds below.

Worked examples follow.
N#Cc1cccc(-n2c(=O)nc(N3CC(O)C3)c3ccc(C(F)(F)F)cc32)c1; > 6.70
CNc1nc(=O)n(-c2ccccc2)c2cc(CCl)ccc12; > 6.70
CC1(Nc2nc(=O)n(-c3ccccc3Cl)c3nc(C(F)(F)F)ccc23)CCC1; > 6.70
O=c1nc(N2CC(O)C2)c2ccc(C3CC3)cc2n1-c1ccccc1; > 6.70

Give its pIC50 value. Item: `CN(C)c1nc(=O)n(-c2cccc(NS(=O)(=O)C3(C)CC3)c2)c2cc(Cl)ccc12` 6.00 to 6.30

Give its pIC50 value. Item: `NC(=O)[C@@H]1CCCN1c1nc(=O)n(-c2ccccc2)c2cc(Cl)ccc12` 5.00 to 6.00

Give its pIC50 value. Item: `O=c1nc(NC2CC2)c2ccc(C(F)(F)F)nc2n1-c1ccccc1Cl` > 6.70

Give its pIC50 value. Item: `O=c1nc(NCC(F)(F)F)c2ccc(C(F)(F)F)nc2n1-c1ccccc1Cl` > 6.70

====

IC50 values for the compounds below.
- Experimental System: hMAT2A (Homo sapiens (Human))
- Protocol Summary: Phosphate Sensor Fluorescence Assay (MAT2A enzyme inhibition)
- Format: biochemical
- Experimental Setup: L-methionine 500 uM, ATP 500 uM, class symbols

Worked examples follow.
O=c1nc(N2CC[C@H](O)C2)c2ccc(C(F)(F)F)nc2n1-c1ccccc1Cl; < 200 nM
CNc1nc(=O)n(-c2ccnc(OC)c2)c2nc(C(F)(F)F)ccc12; 200 to 500 nM
O=c1nc(O)c2ccc(Cl)cc2n1-c1ccc2[nH]ncc2c1; 1000 to 10000 nM

Give its IC50 value. Item: `Cc1ccccc1-n1c(=O)nc(N2CC[C@@H](O)C2)c2ccc(C(F)(F)F)cc21` < 200 nM

====

- Experimental System: hMAT2A (Homo sapiens (Human))
- Protocol Summary: Malachite Green Assay (MAT2A enzyme inhibition)
- Format: biochemical
- Experimental Setup: hMAT2A 50 nM, substrates 500 uM each, 1 hour
pIC50: −log10 of the molar value.
pIC50 values for the compounds below.

Worked examples follow.
O=c1nc(NCC(F)F)c2ccc(Cl)cc2n1-c1ccccc1; 6.00 to 6.30
CNc1nc(=O)n(-c2ccccc2F)c2cc(Cl)ccc12; > 6.70

Give its pIC50 value. Item: `CNc1nc(=O)n(-c2ccccc2)c2cc(C3CC3)ccc12` > 6.70

====

IC50 values for the compounds below.
- Experimental System: hMAT2A (Homo sapiens (Human))
- Protocol Summary: Phosphate Sensor Fluorescence Assay (MAT2A enzyme inhibition)
- Assay type: biochemical
- Experimental Setup: L-methionine 500 uM, ATP 500 uM, class symbols

Worked examples follow.
CN(CC(F)(F)F)c1nc(=O)n(-c2ccccc2)c2cc(Cl)ccc12; < 200 nM
C[C@H]1CCCN1c1nc(=O)n(-c2ccccc2)c2nc(C(F)(F)F)ccc12; < 200 nM
CNc1nc(=O)n(-c2cccc(C#N)c2C)c2cc(Cl)ccc12; < 200 nM
CCCc1ccc2c(NC)nc(=O)n(-c3ccccc3)c2c1; < 200 nM
C[C@@H]1CCCN1c1nc(=O)n(-c2ccccc2)c2nc(C(F)(F)F)ccc12; < 200 nM
CNc1nc(=O)n(-c2nccn2C)c2cc(Cl)ccc12; 200 to 500 nM

Give its IC50 value. Item: `Cc1ccccc1-n1c(=O)nc(N)c2ccc(C(F)(F)F)nc21` < 200 nM

Give its IC50 value. Item: `CN(C)CCNc1nc(=O)n(-c2ccccc2Cl)c2nc(C(F)(F)F)ccc12` 1000 to 10000 nM

Give its IC50 value. Item: `N#Cc1cccc(-n2c(=O)nc(N3CC[C@@H](O)C3)c3ccc(C(F)(F)F)cc32)c1` < 200 nM

Give its IC50 value. Item: `CS(=O)(=O)CCNc1nc(=O)n(-c2ccccc2Cl)c2cc(C3CC3)c(C#N)cc12` 1000 to 10000 nM

Give its IC50 value. Item: `N#Cc1cccc(-n2c(=O)nc(N3CC[C@H](O)C3)c3ccc(C(F)(F)F)nc32)c1` < 200 nM
